Measured values drawn from ChEMBL document CHEMBL1149388 for this set.

Molecular target: Metabotropic glutamate receptor 5 (Homo sapiens, UniProt P41594)
Sequence (P41594 whole entry): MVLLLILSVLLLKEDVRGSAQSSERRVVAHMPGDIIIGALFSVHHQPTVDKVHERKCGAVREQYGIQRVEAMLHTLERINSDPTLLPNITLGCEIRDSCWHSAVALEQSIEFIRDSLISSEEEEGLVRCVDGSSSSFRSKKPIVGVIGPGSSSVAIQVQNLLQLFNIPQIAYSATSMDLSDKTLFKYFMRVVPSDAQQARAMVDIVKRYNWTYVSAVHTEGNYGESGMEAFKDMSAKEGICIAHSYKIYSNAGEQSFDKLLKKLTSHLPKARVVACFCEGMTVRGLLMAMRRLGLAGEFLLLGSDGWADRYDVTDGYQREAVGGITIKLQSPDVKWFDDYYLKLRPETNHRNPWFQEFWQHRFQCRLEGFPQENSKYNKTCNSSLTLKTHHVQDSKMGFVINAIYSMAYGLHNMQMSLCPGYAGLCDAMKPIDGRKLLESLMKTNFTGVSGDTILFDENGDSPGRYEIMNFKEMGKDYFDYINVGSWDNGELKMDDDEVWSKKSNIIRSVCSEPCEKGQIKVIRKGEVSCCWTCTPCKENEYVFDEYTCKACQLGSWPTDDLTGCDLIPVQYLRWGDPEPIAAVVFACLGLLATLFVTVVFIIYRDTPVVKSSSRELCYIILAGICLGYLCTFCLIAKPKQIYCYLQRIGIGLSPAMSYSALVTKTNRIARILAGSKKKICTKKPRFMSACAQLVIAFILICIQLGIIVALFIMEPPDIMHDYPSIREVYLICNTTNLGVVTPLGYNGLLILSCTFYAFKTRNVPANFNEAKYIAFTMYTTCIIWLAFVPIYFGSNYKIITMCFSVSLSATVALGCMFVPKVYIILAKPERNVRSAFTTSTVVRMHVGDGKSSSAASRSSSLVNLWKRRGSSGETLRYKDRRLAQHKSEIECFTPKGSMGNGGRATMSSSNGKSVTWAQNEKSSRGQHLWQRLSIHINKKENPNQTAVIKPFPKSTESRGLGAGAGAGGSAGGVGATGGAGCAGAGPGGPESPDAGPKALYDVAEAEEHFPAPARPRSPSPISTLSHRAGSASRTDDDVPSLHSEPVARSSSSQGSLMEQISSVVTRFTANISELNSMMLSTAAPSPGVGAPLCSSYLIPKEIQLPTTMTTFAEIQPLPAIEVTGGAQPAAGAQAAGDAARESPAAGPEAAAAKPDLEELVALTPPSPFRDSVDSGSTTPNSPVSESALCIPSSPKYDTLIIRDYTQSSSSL
Assay: Displacement of [3H]MPEP from cloned human mGluR5 transfected in HEK293-T cells
Property label: Ki (nM)
Return type: number; implicit unit nM.

[
  {
    "Structure": "C=Cc1cncc(C#Cc2csc(C)n2)c1",
    "Measurement unit": "nM",
    "Quantitative result": 1
  }
]

In the following, a different molecule is considered.
Provide one value: measured Ki of "Cc1nc(C#Cc2cccc(C#N)c2)cs1"
0.37

---

Target: Metabotropic glutamate receptor 5 (Rattus norvegicus)
Assay: Activity in agonist-induced phosphoinositide hydrolysis in CHO cells expressing mGluR5a
pIC50: −log10 of the molar value.
Label label 0 if pIC50 falls below 6; label label 1 in every other case.

Confirm if pIC50 reported for the compound "COc1ccccc1C#Cc1csc(C)n1" is 6 or above.
label 1

Confirm if pIC50 reported for the compound "CC(=O)Nc1nc(C#Cc2cccnc2)cs1" is 6 or above.
label 0

---

Target: Metabotropic glutamate receptor 5 (Rattus norvegicus, UniProt P31424)
Sequence (P31424 whole entry): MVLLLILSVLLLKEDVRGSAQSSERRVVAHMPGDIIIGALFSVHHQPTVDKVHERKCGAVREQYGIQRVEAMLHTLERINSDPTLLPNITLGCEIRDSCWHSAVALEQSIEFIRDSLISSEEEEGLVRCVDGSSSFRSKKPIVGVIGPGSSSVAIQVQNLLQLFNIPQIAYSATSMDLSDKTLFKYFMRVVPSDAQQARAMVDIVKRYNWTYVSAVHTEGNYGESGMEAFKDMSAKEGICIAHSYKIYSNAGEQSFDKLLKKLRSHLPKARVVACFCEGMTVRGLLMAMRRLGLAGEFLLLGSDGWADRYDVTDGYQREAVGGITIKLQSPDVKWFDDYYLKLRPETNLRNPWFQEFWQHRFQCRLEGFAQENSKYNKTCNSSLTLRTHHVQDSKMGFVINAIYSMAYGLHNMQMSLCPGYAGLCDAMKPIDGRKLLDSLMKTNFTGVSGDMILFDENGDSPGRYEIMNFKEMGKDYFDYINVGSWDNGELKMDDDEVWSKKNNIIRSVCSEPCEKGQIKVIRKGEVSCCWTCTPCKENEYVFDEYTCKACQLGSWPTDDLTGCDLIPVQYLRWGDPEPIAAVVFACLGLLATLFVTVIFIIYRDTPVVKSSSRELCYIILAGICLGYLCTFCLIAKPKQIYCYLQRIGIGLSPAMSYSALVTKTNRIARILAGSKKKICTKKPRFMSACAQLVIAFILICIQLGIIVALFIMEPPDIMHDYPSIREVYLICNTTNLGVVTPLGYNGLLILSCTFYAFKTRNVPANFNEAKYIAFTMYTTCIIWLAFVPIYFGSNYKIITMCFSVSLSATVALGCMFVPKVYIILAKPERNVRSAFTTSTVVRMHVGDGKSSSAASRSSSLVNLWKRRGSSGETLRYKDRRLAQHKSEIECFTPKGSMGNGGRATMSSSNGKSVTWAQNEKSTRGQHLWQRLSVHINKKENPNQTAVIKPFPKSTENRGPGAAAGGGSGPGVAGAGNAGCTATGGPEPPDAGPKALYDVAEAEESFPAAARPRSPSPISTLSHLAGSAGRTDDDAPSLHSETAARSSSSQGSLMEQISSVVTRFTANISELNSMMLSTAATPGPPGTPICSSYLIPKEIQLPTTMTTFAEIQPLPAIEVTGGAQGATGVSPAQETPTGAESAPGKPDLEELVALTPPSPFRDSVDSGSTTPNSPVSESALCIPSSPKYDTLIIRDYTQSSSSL
Property label: Ki (nM)
Return type: number; implicit unit nM.

[
  {
    "Structure": "C=Cc1cncc(C#Cc2csc(C)n2)c1",
    "Quantitative result": 0.71
  }
]

In the following, a different compound is considered.
Tell me its Ki on Metabotropic glutamate receptor 5 (Rattus norvegicus, UniProt P31424): "Cc1nc(C#Cc2cccc(C#N)c2)cs1"
0.25

---

Biological target: Metabotropic glutamate receptor 5 (Rattus norvegicus) (UniProt P31424)
Sequence (P31424 whole entry, looked up): as the sequence (P31424 whole entry) above
Experiment: Activity in agonist-induced phosphoinositide hydrolysis in CHO cells expressing mGluR5a
pIC50: −log10 of the molar value.
Label f if pIC50 falls below 7; label t in every other case.

Worked examples, 3 molecules total:
[
  {
    "Structure": "Cc1nc(C#Cc2ccc(OS(C)(=O)=O)nc2)cs1",
    "Discrete label": "f"
  },
  {
    "Structure": "Cc1nc(C#Cc2cnc3ccccc3c2)cs1",
    "Discrete label": "f"
  },
  {
    "Structure": "Cc1nc(C#Cc2cccnc2)co1",
    "Discrete label": "f"
  }
]

Confirm if pIC50 reported for the molecule "C#Cc1nc(C#Cc2cccc(F)c2)cs1" is 7 or above.
f

Confirm if pIC50 reported for the molecule "Cc1nc(C#Cc2cccnc2Cl)cs1" is 7 or above.
t

---

Target: Metabotropic glutamate receptor 5 (Rattus norvegicus) (UniProt P31424)
Test: Activity in agonist-induced phosphoinositide hydrolysis in CHO cells expressing mGluR5a
Reported log10 of IC50 values for the following compounds.
Reminder: these figures are log10 of reported IC50, in nM before transformation.

Use these answered entries as a reference point.
[
  {
    "Structure": "Cc1nc(C#Cc2cccnc2)c(C)s1",
    "log10 of IC50": 2.84
  },
  {
    "Structure": "Cc1nc(C#Cc2cncc(C#CCO)c2)cs1",
    "log10 of IC50": 1.84
  },
  {
    "Structure": "C=Cc1cncc(C#Cc2csc(C)n2)c1",
    "log10 of IC50": 0.30
  },
  {
    "Structure": "Cc1nc(C#Cc2cccc(F)c2)cs1",
    "log10 of IC50": 1.36
  },
  {
    "Structure": "Cc1nc(C#Cc2cccc(C#N)c2)cs1",
    "log10 of IC50": -0.03
  },
  {
    "Structure": "Cc1nc(C#Cc2cccc(OC(F)(F)F)c2)cs1",
    "log10 of IC50": 2.42
  },
  {
    "Structure": "Cc1nc(C#Cc2cccc(C(N)=O)c2)cs1",
    "log10 of IC50": 3.00
  },
  {
    "Structure": "Cc1nc(C#Cc2cc(F)cc(F)c2)cs1",
    "log10 of IC50": 1.40
  },
  {
    "Structure": "COc1ncccc1C#Cc1csc(C)n1",
    "log10 of IC50": 2.36
  },
  {
    "Structure": "Cc1nc(C#Cc2cccc(C(F)(F)F)c2)cs1",
    "log10 of IC50": 2.62
  }
]

Provide one value: measured log10 of IC50 of "Cc1nc(C#Cc2ccc(F)cn2)cs1"
3.04

Provide one value: measured log10 of IC50 of "Fc1cccc(C#Cc2csc(Br)n2)c1"
2.72

Provide one value: measured log10 of IC50 of "Cc1nc(C#Cc2cnccn2)cs1"
3.26

Provide one value: measured log10 of IC50 of "Cc1nc(C#Cc2cncnc2)cs1"
2.98

Provide one value: measured log10 of IC50 of "Cc1nc(C#Cc2ccc(F)nc2)cs1"
2.92

Provide one value: measured log10 of IC50 of "Nc1nc(C#Cc2cccnc2)cs1"
2.90
